Would you kindly list Cap analog/eIF4E affinity (KAS) for each of these molecules?
# STUDY SYSTEM: eIF4E (Mus musculus)
# Sequence (P63073 28-217 limits assumed): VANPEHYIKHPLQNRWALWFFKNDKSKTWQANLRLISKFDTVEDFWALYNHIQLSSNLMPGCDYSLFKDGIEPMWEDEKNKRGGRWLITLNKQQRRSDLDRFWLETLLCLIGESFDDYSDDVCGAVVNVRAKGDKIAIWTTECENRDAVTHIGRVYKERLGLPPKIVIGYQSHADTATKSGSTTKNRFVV
# ASSAY NOTES: Binding affinity of cap analogs to eIF4E by fluorescence titration
# ASSAY CONDITIONS: equilibrium association constant; 20 °C, pH 7.2, ionic strength 150 mM

Output measured Cap analog/eIF4E affinity (KAS) for this item: Cn1c[n+]([C@@H]2O[C@H](COP(=O)(O)OP(=O)(O)OP(=O)(O)OC[C@H]3O[C@@H](n4cnc5c(=O)[nH]c(N)nc54)[C@H](O)[C@@H]3O)[C@@H](O)[C@H]2O)c2nc(N)[nH]c(=O)c21 [m^7GpppG, m^7G(5′)ppp(5′)G, reference compound]
9.4 ± 0.4 μM^−1

Give the value of Cap analog/eIF4E affinity (KAS) reported for the following: [BH3-]P(=O)(OP(=O)(O)OCC1OC(n2cnc3c(=O)[nH]c(N)nc32)C(O)C1O)OP(=O)(O)OCC1OC(n2c[n+](C)c3c(=O)[nH]c(N)nc32)C(OC)C1O (single isomer, unassigned) [m2^7,2′-OGppBH3pG (D2), m2^7,2′-OGppBH3pG]
13.2 ± 0.2 μM^−1

---

Would you kindly list pIC50 for each of these compounds?
# STUDY SYSTEM: cap-dependent translation of luciferase mRNA in reticulocyte lysate
# ASSAY NOTES: Inhibition of cap-dependent translation in vitro by free cap analogs
# Format: biochemical, rabbit
# ASSAY CONDITIONS: cap analog incubated in translation system 60 min before addition of mRNA; read-out: Inhibition of in vitro translation (IC50), condition B
API: returns pIC50 as number; meaning -log10 of concentration in mol/L.

Name the recorded pIC50 of the compound listed here: [BH3-]P(=O)(OP(=O)(O)OCC1OC(n2cnc3c(=O)[nH]c(N)nc32)C(O)C1O)OP(=O)(O)OCC1OC(n2c[n+](C)c3c(=O)[nH]c(N)nc32)C(O)C1O (single isomer, unassigned) [m^7GppBH3pG (D2), m^7GppBH3pG]
5.46

Supply measured pIC50 of [BH3-]P(=O)(OP(=O)(O)OCC1OC(n2cnc3c(=O)[nH]c(N)nc32)C(O)C1O)OP(=O)(O)OCC1OC(n2c[n+](C)c3c(=O)[nH]c(N)nc32)C(O)C1O (single isomer, unassigned) [m^7GppBH3pG (D1), m^7GppBH3pG] in your reply.
5.89

Give pIC50 for Cn1c[n+]([C@@H]2O[C@H](COP(=O)(O)OP(=O)(O)OP(=O)(O)OC[C@H]3O[C@@H](n4cnc5c(=O)[nH]c(N)nc54)[C@H](O)[C@@H]3O)[C@@H](O)[C@H]2O)c2nc(N)[nH]c(=O)c21 [m^7GpppG, m^7G(5′)ppp(5′)G, reference compound]
4.45

Read off the recorded pIC50 for [BH3-]P(=O)(OC[C@H]1O[C@@H](n2cnc3c(=O)[nH]c(N)nc32)[C@H](O)[C@@H]1O)OP(=O)(O)OP(=O)(O)OC[C@H]1O[C@@H](n2c[n+](C)c3c(=O)[nH]c(N)nc32)[C@H](O)[C@@H]1O (single isomer, unassigned) [m^7GpppBH3G (D1), m^7GpppBH3G]
5.04

Return the recorded pIC50 value; entry: [BH3-]P(=O)(OC[C@H]1O[C@@H](n2cnc3c(=O)[nH]c(N)nc32)[C@H](O)[C@@H]1O)OP(=O)(O)OP(=O)(O)OC[C@H]1O[C@@H](n2c[n+](C)c3c(=O)[nH]c(N)nc32)[C@H](O)[C@@H]1O (single isomer, unassigned) [m^7GpppBH3G (D2), m^7GpppBH3G]
4.79
